system: A549; assay: NCI tumour cell line growth inhibition, 48 h
Where a name gives a salt, the structure may show the parent alone. Calls of active or inactive are those of the source. Cut-off read from the data, not from the text of the source: active = GI50 up to about 1.1 µM and inactive = higher.
Possible outcomes: yes (1) (active), no (0) (inactive)

compound=Cc1c(OCCCOc2ccc3c(=O)cc(-c4ccccc4)oc3c2C)ccc2c(=O)cc(-c3ccccc3)oc12 category_label="no (0)"
compound=CC(C)=CC(=O)c1[nH]c2ccccc2c1CC(=O)NCCc1c[nH]cn1 category_label="no (0)"
compound="O=c1[nH]c(=O)n(C2OC(CO)C(O)C(O)C2O)cc1F (stereo unspecified)" category_label="no (0)"
compound="Cn1c(=O)n2n(c1=O)C([S+]([O-])c1ccccc1)C2 (stereo unspecified)" category_label="no (0)"
compound="COC(=O)C1=C(C(=O)OC)C(OO)(c2ccccc2)OC1=O (stereo unspecified)" category_label="no (0)"
compound=Nc1nc(N)c2cc(S(=O)(=O)c3ccc4ccccc4c3)ccc2n1 category_label="yes (1)"
compound=COc1ccc(/C=c2\sc3n(c2=O)CCN=3)cc1 category_label="no (0)"
compound=C/C=C/C[C@@H](C)[C@@H](O)[C@H]1C(=O)N[C@@H](CC)C(=O)N(C)CC(=O)N(C)[C@@H](CC(C)C)C(=O)N[C@@H](C(C)C)C(=O)N(C)[C@@H](CC(C)C)C(=O)N[C@@H](C)C(=O)N[C@H](C)C(=O)N(C)[C@@H](CC(C)C)C(=O)N(C)[C@@H](CC(C)C)C(=O)N(C)[C@@H](C(C)C)C(=O)N1C category_label="no (0)"
compound="CCCCCC/C=C1\\CCC(CN(C)C)C1=O (stereo unspecified)" category_label="no (0)"
compound=COC/C=C\[C@@]1(O)CCCC[C@@H]1CC(OC)OC category_label="no (0)"
compound=NNc1nnc(-c2nnc(NN)o2)o1 category_label="no (0)"
compound=c1ccc2c(c1)SCCCSCCCS2 category_label="no (0)"
compound="COc1cc2cc(C(=O)N3CC(CCl)c4ccc([N+](C)(C)Cc5ccccc5[N+](=O)[O-])cc43)[nH]c2c(OC)c1OC (stereo unspecified)" category_label="yes (1)"
compound=CCc1n[nH]c(=O)n1NC(=O)c1ccccc1C(=O)O category_label="no (0)"
compound=Cc1ccccc1C(=O)c1cc(O)ccc1O category_label="no (0)"
compound=O=C(Nc1nccs1)NS(=O)(=O)n1cnc2ccccc21 category_label="no (0)"
compound=CSc1nc(NC2CCCC2)c2cc[nH]c2n1 category_label="no (0)"
compound="CC1=Nc2c(O)nc(S)nc2NC(c2ccc(Cl)c(Cl)c2)C1 (stereo unspecified)" category_label="no (0)"
compound="CC(C)C[C@H]1C(=O)N2CCC[C@H]2[C@]2(O)O[C@](NC(=O)[C@@H]3C=C4c5cccc6[nH]c(Br)c(c56)C[C@H]4N(C)C3)(C(C)C)C(=O)N12 [BROMOCRIPTINE MESYLATE]" category_label="no (0)"
compound=O=C(O)c1ccccc1C1c2ccccc2Oc2ccccc21 category_label="no (0)"
compound=COc1ccc(N2C(=O)/C(=C(\C)c3cc4ccccc4oc3=O)N=C2c2cc([N+](=O)[O-])ccc2Cl)cc1 category_label="no (0)"
compound="CC1OC(OC2C(O[C@H]3CC[C@@]4(C)[C@@H](CC[C@@H]5[C@@H]4CC[C@]4(C)[C@@H]6[C@H](C[C@@H]54)O[C@]4(CC[C@@H](C)CO4)[C@H]6C)C3)OC(CO)C(OC3OC(CO)C(O)C(OC4OCC(O)C(O)C4O)C3OC3OCC(O)C(O)C3O)C2O)C(O)C(O)C1O (stereo partly specified)" category_label="yes (1)"
compound=CC1(C)C/C(=N/O)c2c(nc3ccc4ccccc4c3c2-c2ccc(Cl)cc2)C1 category_label="no (0)"
compound=Cc1cc(OC(=O)NCn2cc(-c3ccccc3)nn2)ccc1Cl category_label="no (0)"
compound="CC(C)CC1NC(=O)C(C(C)C)NC(=O)CC(C)COC(=O)C(CC(C)C)N(C)C(=O)C(C(C)C)NC(=O)C(C(C)C)OC1=O (stereo unspecified)" category_label="no (0)"
compound="CCOC(=O)C1C(c2ccc(OC)cc2)c2c(n[nH]c2O)CC1(O)OCC (stereo unspecified)" category_label="no (0)"
compound=COC(=O)/C=C/CC(=O)NS(C)(=O)=O category_label="no (0)"
compound=CC(=O)/C(=C/NC(=S)Nc1ccccc1)C(=O)Nc1ccccc1C category_label="no (0)"
compound=CCOC(=O)C1=C(O)C(=O)c2ccccc2C1=O category_label="no (0)"
compound=O=[N+]([O-])c1ccc2c(/N=N/c3ccc4ccccc4c3O)c(O)cc(S(=O)(=O)O)c2c1 category_label="no (0)"
compound=CNC(=S)/N=C(\N)N(C)C category_label="no (0)"
